Biological target: Galectin-1 (Homo sapiens (Human))
Sequence (P09382 whole entry): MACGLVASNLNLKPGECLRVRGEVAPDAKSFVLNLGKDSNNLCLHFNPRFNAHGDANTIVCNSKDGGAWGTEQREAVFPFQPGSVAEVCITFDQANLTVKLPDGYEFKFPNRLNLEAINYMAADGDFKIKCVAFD
Assay: Fluorescence anisotropy assay, compound as inhibitor of galectin / fluorescein tagged saccharide probe interaction
Format: binding
Details: Experimental Section 1
Experimental: 100 nM albumin was included as a carrier to prevent protein loss at such low concentration of galectin.
Collected Kd values appear next to each entry.
The reply should be a number in nM, with the unit left off.

// below: answered molecules
# get_value(readout= Kd, system= Galectin-1 (Homo sapiens (Human))) for O=c1oc2ccc(F)c(F)c2cc1COC1C(O)[C@@H](CO)OC(S[C@@H]2OC(CO)[C@H](O)[C@H](n3cc(-c4cc(F)c(F)c(F)c4)nn3)C2O)[C@@H]1O (stereo partly drawn)
480

Next entry: O=C(NC1C(O)C(CO)OC(SC2OC(CO)C(O)C(n3cc(-c4cccc(F)c4)nn3)C2O)C1O)c1ccc2cc3ccccc3cc2c1 (stereo not drawn) [Example S20b]
490

Could you now consider this next molecule?
Record CCCCNC(=O)c1cn([C@@H]2C(O)[C@H](SC3O[C@H](CO)C(O)C(OCc4cc5c(F)c(F)ccc5oc4=O)[C@H]3O)OC(CO)[C@@H]2O)nn1 (stereo partly drawn) : what is its Kd with Galectin-1 (Homo sapiens (Human))?
1200

---

biological target: Galectin-3 (Homo sapiens (Human)); experiment: Fluorescence anisotropy assay with high-affinity probe (SY), 50 nM galectin-3, 100 nM albumin; format: binding; conditions: Experimental Section 1
Sequence (P17931 whole entry): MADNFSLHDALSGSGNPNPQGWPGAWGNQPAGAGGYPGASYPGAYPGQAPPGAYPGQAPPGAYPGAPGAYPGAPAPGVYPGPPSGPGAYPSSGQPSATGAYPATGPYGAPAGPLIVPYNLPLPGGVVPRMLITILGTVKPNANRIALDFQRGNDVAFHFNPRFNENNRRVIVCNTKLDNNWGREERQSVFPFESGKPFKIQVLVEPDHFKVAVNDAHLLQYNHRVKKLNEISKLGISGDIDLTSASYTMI
measurement_kind: pKd
In plain terms, pKd is the concentration in mol/L turned into minus its base-10 logarithm.

Which pKd value is on record for OCC1O[C@@H](SC2O[C@H](CO)C(O)C(n3cc(-c4ccccc4)nn3)[C@H]2O)C(O)[C@@H](n2cc(-c3cc(F)c(F)c(F)c3)nn2)[C@H]1O (some centres unmarked) ?
8.52

---
Tell me the measured pKd of CCCCNC(=O)c1cn(C2C(O)[C@@H](CO)OC(S[C@@H]3OC(CO)[C@H](O)[C@H](n4cc(-c5cc(F)c(F)c(F)c5)nn4)C3O)[C@@H]2O)nn1 (some centres unmarked) , please.
9.00

Consider next the compound COc1c(F)c(F)c(C(=O)NC2C(O)C(CO)OC(SC3OC(CO)C(O)C(n4cc(-c5cccc(F)c5)nn4)C3O)C2O)c(F)c1F (centres unmarked) in the same way.
8.15

Same again, this time with O=C(NC1C(O)C(CO)OC(SC2OC(CO)C(O)C(n3cc(-c4cccc(F)c4)nn3)C2O)C1O)c1c2ccccc2cc2ccccc12 (centres unmarked) [Example S20a]
7.19

# iterate: CCCCNC(=O)c1cn([C@@H]2C(O)[C@H](SC3O[C@H](CO)C(O)C(OCc4cc5c(F)c(F)ccc5oc4=O)[C@H]3O)OC(CO)[C@@H]2O)nn1 (some centres unmarked)
7.14

Could you do the same for O=c1oc2ccc(F)c(F)c2cc1COC1C(O)[C@@H](CO)OC(S[C@@H]2OC(CO)[C@H](O)[C@H](n3cc(-c4cccc(F)c4)nn3)C2O)[C@@H]1O (some centres unmarked) , please?
7.55

What do you have for O=C(NC1C(O)C(CO)OC(SC2OC(CO)C(O)C(n3cc(-c4cccc(F)c4)nn3)C2O)C1O)c1ccc2cc3ccccc3cc2c1 (centres unmarked) [Example S20b] ?
6.85

Lookup O=c1oc2ccc(F)c(F)c2cc1COC1C(O)[C@@H](CO)OC(S[C@@H]2OC(CO)[C@H](O)[C@H](n3cc(-c4cc(F)c(F)c(F)c4)nn3)C2O)[C@@H]1O (some centres unmarked)
8.70

---

molecular target: Galectin-1 (Homo sapiens (Human)); assay: Fluorescence anisotropy assay, compound as inhibitor of galectin / fluorescein tagged saccharide probe interaction; assay type: binding; settings: Experimental Section 1
measurement_kind: Kd (nM)
Your answer is read as nM, so omit the unit and give the number.

So what's the measured Kd for this one? O=c1oc2ccc(F)c(F)c2cc1COC1C(O)[C@@H](CO)OC(S[C@@H]2OC(CO)[C@H](O)[C@H](n3cc(-c4cccc(F)c4)nn3)C2O)[C@@H]1O (some centres unmarked)
320

Same again, this time with CCCCNC(=O)c1cn(C2C(O)[C@@H](CO)OC(S[C@@H]3OC(CO)[C@H](O)[C@H](n4cc(-c5cc(F)c(F)c(F)c5)nn4)C3O)[C@@H]2O)nn1 (some centres unmarked)
77

And COc1c(F)c(F)c(C(=O)NC2C(O)C(CO)OC(SC3OC(CO)C(O)C(n4cc(-c5cccc(F)c5)nn4)C3O)C2O)c(F)c1F (centres unmarked) ?
90

Also OCC1O[C@@H](SC2O[C@H](CO)C(O)C(n3cc(-c4ccccc4)nn3)[C@H]2O)C(O)[C@@H](n2cc(-c3cc(F)c(F)c(F)c3)nn2)[C@H]1O (some centres unmarked) ?
66

O=C(NC1C(O)C(CO)OC(SC2OC(CO)C(O)C(n3cc(-c4cccc(F)c4)nn3)C2O)C1O)c1c2ccccc2cc2ccccc12 (centres unmarked) [Example S20a] ?
380
